From: patent US8895733B2

- SUBJECT OF TEST: Nav 1.7 (Homo sapiens, UniProt Q15858)
- Construct: expressed in transfected cells
- Sequence (Q15858 whole entry): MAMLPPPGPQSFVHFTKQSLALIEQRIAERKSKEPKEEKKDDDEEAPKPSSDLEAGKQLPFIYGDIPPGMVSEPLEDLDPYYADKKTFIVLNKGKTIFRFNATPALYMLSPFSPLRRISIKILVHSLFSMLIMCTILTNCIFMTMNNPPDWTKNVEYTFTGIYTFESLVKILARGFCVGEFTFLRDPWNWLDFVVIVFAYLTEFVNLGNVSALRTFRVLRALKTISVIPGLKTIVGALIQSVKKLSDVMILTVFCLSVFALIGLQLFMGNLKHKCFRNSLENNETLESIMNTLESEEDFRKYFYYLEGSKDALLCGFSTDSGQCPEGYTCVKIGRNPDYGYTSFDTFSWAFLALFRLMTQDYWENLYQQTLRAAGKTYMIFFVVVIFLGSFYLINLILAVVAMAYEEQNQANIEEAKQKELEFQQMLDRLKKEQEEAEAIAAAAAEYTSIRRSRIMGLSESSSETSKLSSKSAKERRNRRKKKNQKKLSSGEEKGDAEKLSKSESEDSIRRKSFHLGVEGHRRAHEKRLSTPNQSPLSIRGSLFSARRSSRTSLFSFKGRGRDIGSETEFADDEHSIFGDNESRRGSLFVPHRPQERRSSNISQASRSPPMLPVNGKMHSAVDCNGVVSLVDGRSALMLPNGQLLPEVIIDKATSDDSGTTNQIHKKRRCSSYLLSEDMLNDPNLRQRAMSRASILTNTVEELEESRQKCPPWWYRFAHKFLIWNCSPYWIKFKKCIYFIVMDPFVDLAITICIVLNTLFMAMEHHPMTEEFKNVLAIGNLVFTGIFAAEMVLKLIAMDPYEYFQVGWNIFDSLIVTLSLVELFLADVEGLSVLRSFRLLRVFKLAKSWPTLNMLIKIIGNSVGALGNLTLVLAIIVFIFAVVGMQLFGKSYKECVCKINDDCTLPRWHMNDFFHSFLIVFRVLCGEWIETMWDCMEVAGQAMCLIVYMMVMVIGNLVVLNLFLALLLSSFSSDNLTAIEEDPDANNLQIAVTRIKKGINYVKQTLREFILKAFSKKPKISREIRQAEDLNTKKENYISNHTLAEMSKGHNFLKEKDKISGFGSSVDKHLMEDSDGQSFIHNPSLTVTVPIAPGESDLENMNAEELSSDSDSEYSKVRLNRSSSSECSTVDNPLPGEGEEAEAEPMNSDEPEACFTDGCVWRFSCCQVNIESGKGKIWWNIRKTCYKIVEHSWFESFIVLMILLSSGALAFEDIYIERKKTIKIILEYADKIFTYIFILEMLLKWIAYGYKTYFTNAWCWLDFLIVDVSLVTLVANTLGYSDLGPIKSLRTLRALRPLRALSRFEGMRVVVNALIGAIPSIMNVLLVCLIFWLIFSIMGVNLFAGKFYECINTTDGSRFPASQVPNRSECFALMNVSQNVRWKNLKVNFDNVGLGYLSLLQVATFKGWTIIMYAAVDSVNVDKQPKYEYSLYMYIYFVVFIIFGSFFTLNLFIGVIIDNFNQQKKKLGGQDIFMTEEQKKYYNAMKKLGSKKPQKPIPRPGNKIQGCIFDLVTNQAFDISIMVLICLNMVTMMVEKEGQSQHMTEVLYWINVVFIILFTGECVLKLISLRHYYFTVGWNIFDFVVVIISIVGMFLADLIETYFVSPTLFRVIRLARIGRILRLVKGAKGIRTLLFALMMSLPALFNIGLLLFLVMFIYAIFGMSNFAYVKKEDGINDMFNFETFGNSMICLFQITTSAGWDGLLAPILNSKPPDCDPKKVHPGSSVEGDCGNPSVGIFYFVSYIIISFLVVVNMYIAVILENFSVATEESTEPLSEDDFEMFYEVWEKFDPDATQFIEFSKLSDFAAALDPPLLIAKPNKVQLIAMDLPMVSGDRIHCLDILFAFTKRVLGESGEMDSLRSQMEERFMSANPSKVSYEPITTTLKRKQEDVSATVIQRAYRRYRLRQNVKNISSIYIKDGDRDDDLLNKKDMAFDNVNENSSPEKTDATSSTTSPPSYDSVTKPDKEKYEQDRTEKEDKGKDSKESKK
- ASSAY METHOD TEXT: Whole-cell voltage clamp electrophysiology, automated patch clamp (marker c in Table of Examples)
- Format: cell-based
- RUN PARAMETERS: marker c: Automated patch clamp data; read-out: Nav 1.7 activity
Listing of recorded IC50 by entry.
Numbers only; they are read as nM.

CN(c1ccccc1)c1nc(N)nc(-c2noc(-c3cccc4c3OCC4)n2)n1: 3380
CN(c1ccccc1)c1nc(N)nc(-c2noc(-c3ccc(F)cn3)n2)n1: 1390
Nc1nc(Nc2ccccc2)nc(-c2noc(-c3cc[nH]n3)n2)n1: 2720
Cc1ccc(-c2nc(-c3nc(N)nc(N(C)c4ccccc4)n3)no2)s1 [Example 62]: 1100
Cc1cc(-c2nc(-c3nc(N)nc(N(C)c4ccccc4)n3)no2)n[nH]1: 855
CN(c1ccccc1)c1nc(N)nc(-c2noc(-c3ccc(F)nc3)n2)n1: 3310
COc1ccsc1-c1nc(-c2nc(N)nc(N(C)c3ccccc3)n2)no1: 1410
CN(c1ccccc1)c1nc(N)nc(-c2noc(-c3ccc(N)nc3)n2)n1: 4910

query: Consider the molecule CN(c1ccccc1)c1nc(N)nc(-c2noc(-c3ccncn3)n2)n1 and give its measured IC50.
result: 2240

query: Please give the measured IC50 for this molecule: CC(C)S(=O)(=O)CC1CCN(c2nc(-c3nc(N)nc(N(C)c4ccccc4)n3)no2)CC1
result: 9080

query: Please give the measured IC50 for this molecule: CN(c1ccccc1)c1nc(N)nc(-c2noc(-c3ccccc3C#N)n2)n1
result: 260

query: Given the molecule CN(c1ccccc1)c1nc(N)nc(-c2noc(N3CCC(CS(=O)(=O)CC(F)(F)F)CC3)n2)n1 , what is its reported IC50?
result: 2650
